Every entry's value here was drawn from paper PMC4336329.

- Target desc: human ether-à-go-go-related gene (hERG) potassium channel (human, UniProt Q12809);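 also: peak tail current of the secondary pulse compared with the same well before compound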
- Sequence (Q12809 whole entry, looked up): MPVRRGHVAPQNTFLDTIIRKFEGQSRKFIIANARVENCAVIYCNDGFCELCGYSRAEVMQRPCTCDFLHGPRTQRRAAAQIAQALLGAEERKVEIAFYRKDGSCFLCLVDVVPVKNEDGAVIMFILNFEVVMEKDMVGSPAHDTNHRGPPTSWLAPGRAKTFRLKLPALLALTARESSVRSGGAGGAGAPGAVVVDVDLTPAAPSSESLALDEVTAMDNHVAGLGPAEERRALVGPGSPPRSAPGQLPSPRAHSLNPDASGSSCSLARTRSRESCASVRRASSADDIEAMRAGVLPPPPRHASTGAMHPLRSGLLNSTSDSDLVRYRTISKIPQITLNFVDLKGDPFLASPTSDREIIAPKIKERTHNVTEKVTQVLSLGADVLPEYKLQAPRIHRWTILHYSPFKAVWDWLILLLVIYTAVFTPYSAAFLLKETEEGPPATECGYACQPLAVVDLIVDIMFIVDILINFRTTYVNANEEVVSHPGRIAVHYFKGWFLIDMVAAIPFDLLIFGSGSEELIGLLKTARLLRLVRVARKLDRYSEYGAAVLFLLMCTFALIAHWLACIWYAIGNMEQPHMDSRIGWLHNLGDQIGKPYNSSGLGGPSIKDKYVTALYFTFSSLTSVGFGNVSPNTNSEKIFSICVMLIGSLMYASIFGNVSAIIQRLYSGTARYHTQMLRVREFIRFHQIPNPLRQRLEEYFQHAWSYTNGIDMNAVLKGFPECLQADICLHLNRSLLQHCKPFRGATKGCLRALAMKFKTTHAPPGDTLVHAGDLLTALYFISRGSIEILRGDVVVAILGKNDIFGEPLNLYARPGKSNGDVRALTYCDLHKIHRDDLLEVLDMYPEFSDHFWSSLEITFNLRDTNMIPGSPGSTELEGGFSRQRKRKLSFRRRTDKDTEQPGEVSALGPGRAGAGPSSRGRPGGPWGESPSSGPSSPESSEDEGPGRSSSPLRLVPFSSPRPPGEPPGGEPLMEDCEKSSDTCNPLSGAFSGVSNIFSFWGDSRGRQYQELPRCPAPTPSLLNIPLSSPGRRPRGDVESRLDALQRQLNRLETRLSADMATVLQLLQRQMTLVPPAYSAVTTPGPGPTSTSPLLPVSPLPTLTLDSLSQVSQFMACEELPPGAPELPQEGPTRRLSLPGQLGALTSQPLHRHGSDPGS
- Test description: primary screen, population patch clamp on CHO cells stably expressing hERG; higher = less effect of the substance
Hit rate of the full screen: of about 310,000 compounds, about 14,000 (4.5%) showed an effect of 50% or more. Effects have a minus sign here. The full list was thinned out, with strong results kept by preference.
Property label: hERG current change (%, negative = inhibition) at 10uM (%)
The response must be a number in % with no trailing unit.

Query: hERG current change (%, negative = inhibition) at 10uM; subject: CC(C)COc1ccc(C(=O)Nc2ccc(N3CCOCC3)cc2N2CCOCC2)cc1
1.07

Query: hERG current change (%, negative = inhibition) at 10uM; subject: O=S(=O)(c1ccc(NC(=S)Nc2ccc3c(c2)OCO3)cc1)N1CCOCC1
13.1

Query: hERG current change (%, negative = inhibition) at 10uM; subject: CCOc1cc2[nH]c(=S)n(CCC(=O)NCc3ccco3)c(=O)c2cc1OCC
23.6

Query: hERG current change (%, negative = inhibition) at 10uM; subject: COc1cc(CCN)ccc1O.Cl
15.1

Query: hERG current change (%, negative = inhibition) at 10uM; subject: COc1cc(NS(=O)(=O)c2ccc(NC(=O)C34CC5CC(CC(C5)C3)C4)cc2)ncn1
-4.59

Query: hERG current change (%, negative = inhibition) at 10uM; subject: C/C(=N\NC(=O)c1cc2ccccc2cc1O)c1ccccn1
-3.94

Query: hERG current change (%, negative = inhibition) at 10uM; subject: O=C(COC(=O)c1ccc(Br)o1)NCc1cccs1
-4.11

Query: hERG current change (%, negative = inhibition) at 10uM; subject: CC(=O)Nc1c([N+](=O)[O-])cc(C)c(Cl)c1[N+](=O)[O-]
6.22

Query: hERG current change (%, negative = inhibition) at 10uM; subject: COC(=O)C1=C(C(=O)OC)[C@@H]2N(C)c3ccc(OC)cc3[C@@]23C[C@@H](C(=O)OC)N(C(=O)NCCBr)C3=N1
-32.9

Query: hERG current change (%, negative = inhibition) at 10uM; subject: O=C(O)C(=O)O.c1ccc(OCCCN2CCCC2)cc1
-7.18

Query: hERG current change (%, negative = inhibition) at 10uM; subject: COc1cccc(C(=O)NCc2cccnc2)c1
1.54

Query: hERG current change (%, negative = inhibition) at 10uM; subject: COc1cc(SC)ccc1C(=O)Nc1ccc2c(c1)OCCO2
-18.4

Query: hERG current change (%, negative = inhibition) at 10uM; subject: CCOc1ccccc1C(=O)NC1CC2CCCC(C1)N2Cc1ccc(C)cc1 (stereo not drawn)
-65.2

Query: hERG current change (%, negative = inhibition) at 10uM; subject: Cc1ccccc1NC(=O)C1=CC=CN2CCS(=O)(=O)N=C12
-11.7

Query: hERG current change (%, negative = inhibition) at 10uM; subject: Clc1ccc(-c2[nH]ncc2N=Nc2ccccc2)cc1
15.3

Query: hERG current change (%, negative = inhibition) at 10uM; subject: COc1ccc(C(N)=O)cc1NC(=O)c1cccc(F)c1
18.9

Query: hERG current change (%, negative = inhibition) at 10uM; subject: Cc1ccccc1C(=O)NC1CC2CCC(C1)N2Cc1ccccc1 (stereo not drawn)
-25

Query: hERG current change (%, negative = inhibition) at 10uM; subject: O=C(O)C(=O)O.c1ccc(CN2CCN(CCOCCOc3ccc4c(c3)CCC4)CC2)cc1
-5.19

Query: hERG current change (%, negative = inhibition) at 10uM; subject: O=C(CS(=O)(=O)c1ccccc1)N1CCN(c2ccccc2)CC1
2.36

Query: hERG current change (%, negative = inhibition) at 10uM; subject: CCOC(CNC(=O)c1ccc2c(c1)ncn2-c1cccc(F)c1)OCC
-17.3

Query: hERG current change (%, negative = inhibition) at 10uM; subject: CN(CC(=O)Nc1cccc2ccccc12)c1ccc(S(=O)(=O)N2CCOCC2)cn1
11.8

* * *

- Target desc: human ether-à-go-go-related gene (hERG) potassium channel (human);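 also: peak tail current of the secondary pulse compared with the same well before compound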
- Test description: primary screen, population patch clamp on CHO cells stably expressing hERG; higher = less effect of the substance
Out of some 310,000 compounds screened, about 14,000 (4.5%) showed an effect of 50% or more. The effect is printed as a negative number. Only a selection was taken, and strong results are over-represented in it overall.
Property label: hERG current change (%, negative = inhibition) at 10uM (%)
The response must be a number in % with no trailing unit.

Provide the documented hERG current change (%, negative = inhibition) at 10uM with human ether-à-go-go-related gene (hERG) potassium channel (human) as the system for COc1ccc(CN(C)C2CCN(C)CC2)cc1OC
21.8

Provide the documented hERG current change (%, negative = inhibition) at 10uM with human ether-à-go-go-related gene (hERG) potassium channel (human) as the system for CCN(CC)CCOc1nnc(-c2ccc(C)cc2)c2ccccc12
-67.7

Provide the documented hERG current change (%, negative = inhibition) at 10uM with human ether-à-go-go-related gene (hERG) potassium channel (human) as the system for Cc1cc(Cl)cc(Br)c1OCCNCC(C)O (stereo not shown)
-18.7

Provide the documented hERG current change (%, negative = inhibition) at 10uM with human ether-à-go-go-related gene (hERG) potassium channel (human) as the system for COc1ccc(CN(C)CC2CCCN(CCc3ccc(F)cc3)C2)cc1OC (stereo not shown)
-64.8

Provide the documented hERG current change (%, negative = inhibition) at 10uM with human ether-à-go-go-related gene (hERG) potassium channel (human) as the system for Cc1ccc(C(=O)Nc2nnc(S(=O)(=O)N3CCC(C)CC3)s2)cc1
21.8

Provide the documented hERG current change (%, negative = inhibition) at 10uM with human ether-à-go-go-related gene (hERG) potassium channel (human) as the system for COc1cc(CN(C)CC2CCCN(CCc3ccc(F)cc3)C2)c(Cl)cc1O (stereo not shown)
-30

Provide the documented hERG current change (%, negative = inhibition) at 10uM with human ether-à-go-go-related gene (hERG) potassium channel (human) as the system for Cl.c1ccc(OCCOCCN2CCc3ccccc3C2)cc1
-42.8

Provide the documented hERG current change (%, negative = inhibition) at 10uM with human ether-à-go-go-related gene (hERG) potassium channel (human) as the system for Cc1ccc(S(=O)(=O)Nc2cccc(-n3cnnn3)c2)cc1C(=O)O
3.97

Provide the documented hERG current change (%, negative = inhibition) at 10uM with human ether-à-go-go-related gene (hERG) potassium channel (human) as the system for Cc1ccccc1OCCOc1cccc(/C=N/NC(=O)Cc2nnc(N)s2)c1
14.2

Provide the documented hERG current change (%, negative = inhibition) at 10uM with human ether-à-go-go-related gene (hERG) potassium channel (human) as the system for COc1ccc(OCCOCCN2CCOCC2)cc1
5.25

Provide the documented hERG current change (%, negative = inhibition) at 10uM with human ether-à-go-go-related gene (hERG) potassium channel (human) as the system for COc1ccc(CN(C)CC2CCCN(CCc3ccc(Cl)cc3)C2)cc1OC (stereo not shown)
-88.5

Provide the documented hERG current change (%, negative = inhibition) at 10uM with human ether-à-go-go-related gene (hERG) potassium channel (human) as the system for CCN(CC)CCOc1nnc(-c2ccc(OC)cc2)c2ccccc12
-65

Provide the documented hERG current change (%, negative = inhibition) at 10uM with human ether-à-go-go-related gene (hERG) potassium channel (human) as the system for CCCn1c2ccccc2c2cn[nH]c(=O)c21
12

Provide the documented hERG current change (%, negative = inhibition) at 10uM with human ether-à-go-go-related gene (hERG) potassium channel (human) as the system for Cc1ccc(-c2nnc(OCCN3CCOCC3)c3ccccc23)cc1
-43.4

Provide the documented hERG current change (%, negative = inhibition) at 10uM with human ether-à-go-go-related gene (hERG) potassium channel (human) as the system for Cn1c(C(=O)NCCN2CCc3ccccc3C2)cc2c(=O)n(C)c3ccccc3c21
-11.8

Provide the documented hERG current change (%, negative = inhibition) at 10uM with human ether-à-go-go-related gene (hERG) potassium channel (human) as the system for N#Cc1ccc(OCCN2CCc3ccccc3C2)cc1
-45.2

Provide the documented hERG current change (%, negative = inhibition) at 10uM with human ether-à-go-go-related gene (hERG) potassium channel (human) as the system for CC(C)(C)C1CCC(=NOC(=O)c2ccc(F)cc2)CC1 (stereo not shown)
15.7

Provide the documented hERG current change (%, negative = inhibition) at 10uM with human ether-à-go-go-related gene (hERG) potassium channel (human) as the system for COc1ccc(OCCOCCN2CCc3ccccc3C2)cc1
-69.9

Provide the documented hERG current change (%, negative = inhibition) at 10uM with human ether-à-go-go-related gene (hERG) potassium channel (human) as the system for COc1nnc(-c2ccc(C)cc2)c2ccccc12
5.93

Provide the documented hERG current change (%, negative = inhibition) at 10uM with human ether-à-go-go-related gene (hERG) potassium channel (human) as the system for COc1cccc(CN(C)CC2CCCN(CCc3ccc(Cl)cc3)C2)c1OC (stereo not shown)
-74.5

Provide the documented hERG current change (%, negative = inhibition) at 10uM with human ether-à-go-go-related gene (hERG) potassium channel (human) as the system for CC(=O)c1cccc(N2C(=O)C3C4CCC(C4=C(C)C)C3C2=O)c1 (stereo not shown)
21.1

Provide the documented hERG current change (%, negative = inhibition) at 10uM with human ether-à-go-go-related gene (hERG) potassium channel (human) as the system for Cc1ccccc1NC(=S)N(CCN(C)C)C(C)c1ccccn1 (stereo not shown)
-8.78
